Reference source for all entries: patent US20260217687A1

# TARGET_DESC: recombinant HSP90α (full length with an N-terminal His6-tag) (Homo sapiens, UniProt P07900)
# Construct: recombinant HSP90α (full length with an N-terminal His6-tag, BPS Bioscience); His6 (N)
# PROCEDURE_DETAILS: Fluorescence Polarisation Assay for HSP90
# EXPERIMENTAL_CONTEXT: 30 nM HSP90α, 5 nM FITC-Geldanymycin
PROPERTY_LABEL: IC50

1. CN1CCC(Oc2ccc3c(c2)CN(C(=O)c2c(O)cc(C(F)F)cc2OCC2CC2)C3)CC1 | 1 to 10 µM
2. CN1CCC(Oc2ccc3c(c2)CN(C(=O)c2c(O)cc(C(F)F)cc2OCc2ccccc2)C3)CC1 | 1 to 10 µM
